Below, pIC50 values reported for UniProtKB P17948 across several publications.
pIC50: −log10 of the molar value.
Endpoint: pIC50

[[record]]
structure_notation = "CCN1CCC(Nc2ccc3c(c2)/C(=C(\\c2ccc(Cl)cc2)c2nc4ccccc4[nH]2)C(=O)N3)CC1"
recorded_value = "> 7.30"

[[record]]
structure_notation = "Nc1cccc(-c2cnc3[nH]cc(C(=O)c4cccc(O)c4)c3c2)c1"
recorded_value = "≥ 5.00"

[[record]]
structure_notation = "COC(=O)CNC(=O)c1c[nH]c(-c2cc(Oc3ccc(NC(=O)Nc4cc(C)ccc4F)c(F)c3)ccn2)c1"
recorded_value = 8.10

[[record]]
structure_notation = "Cc1cnc(-c2cnc3[nH]cc(C(=O)c4c(F)ccc(NS(=O)(=O)c5ccc(C(F)(F)F)cc5)c4F)c3c2)[nH]1"
recorded_value = "≥ 5.00"


====

Below, pIC50 values reported for UniProt:P17948 across several publications.
pIC50: −log10 of the molar value.
Endpoint: pIC50

[[record]]
structure_notation = "CCN1CCC(Oc2ccc3c(c2)/C(=C(\\c2cc(F)cc(F)c2)c2nc4ccccc4[nH]2)C(=O)N3)CC1"
tested_target = "UniProt:P17948"
recorded_value = "6.30 to 7.30"

[[record]]
structure_notation = "Cc1ccc(F)c(NC(=O)c2ccc(F)c(Oc3ccnc(-c4cc(C(=O)NCCCO)c[nH]4)c3)c2)c1"
tested_target = "UniProt:P17948"
recorded_value = 7.51

[[record]]
structure_notation = "COC(=O)CC[C@H](NC(=O)c1c[nH]c(-c2cc(Oc3ccc(NC(=O)Nc4cccc(C)c4)c(F)c3)ccn2)c1)C(=O)OC"
tested_target = "UniProt:P17948"
recorded_value = 8.05

[[record]]
structure_notation = "Clc1ccc(Nc2c[nH]c3ncccc23)cc1"
tested_target = "UniProt:P17948"
recorded_value = "≥ 5.00"

[[record]]
structure_notation = "CCN(CC)CCOc1ccc(Nc2ncnc(-n3c(N)nc4ccccc43)n2)cc1OC"
tested_target = "UniProt:P17948"
recorded_value = "5.27 to 6.05"

[[record]]
structure_notation = "Cn1cc(-c2cnc3[nH]cc(Cc4cc(Cl)c(OCc5nc6ccccc6[nH]5)cc4F)c3c2)cn1"
tested_target = "UniProt:P17948"
recorded_value = "≥ 5.00"

[[record]]
structure_notation = "CCCCNC(=O)Nc1cccc(C(=O)c2c[nH]c3ncc(-c4cccnc4)cc23)c1"
tested_target = "UniProt:P17948"
recorded_value = "≥ 5.00"

[[record]]
structure_notation = "CCCCNC(=O)n1ccc2c(C(=O)c3c[nH]c4ncc(-c5ccccc5)cc34)cccc21"
tested_target = "UniProt:P17948"
recorded_value = "≥ 5.00"

[[record]]
structure_notation = "COCCN1CCC(Oc2ccc3c(c2)/C(=C(\\c2cccc(Cl)c2)c2nc4ccccc4[nH]2)C(=O)N3)CC1"
tested_target = "UniProt:P17948"
recorded_value = "5.30 to 6.30"

[[record]]
structure_notation = "O=C(Nc1ccc(F)c(Cc2c[nH]c3ncc(Cl)cc23)c1F)N1CCOCC1"
tested_target = "UniProt:P17948"
recorded_value = "≥ 5.00"

[[record]]
structure_notation = "COc1cc(Nc2ncnc(-n3c(NCc4ccc(Cl)cc4F)nc4ccccc43)n2)cc(OC)c1OC"
tested_target = "UniProt:P17948"
recorded_value = "5.19 to 5.35"

[[record]]
structure_notation = "COc1cc(Nc2ncnc(-c3c(O)[nH]c4ccccc34)n2)cc(OC)c1OC"
tested_target = "UniProt:P17948"
recorded_value = "> 5.99"

[[record]]
structure_notation = "Cc1ccc(F)c(NC(=O)Nc2ccc(Oc3ccnc(-c4cc(C(=O)NCCCCC(=O)O)c[nH]4)c3)cc2)c1"
tested_target = "UniProt:P17948"
recorded_value = 8.22

[[record]]
structure_notation = "CS(=O)(=O)c1cccc(-c2cnc3[nH]cc(C(=O)c4cc(O)ccc4F)c3c2)c1"
tested_target = "UniProt:P17948"
recorded_value = "≥ 5.00"

[[record]]
structure_notation = "CCCCNC(=O)n1ccc2c(C(=O)c3c[nH]c4ncc(-c5cccnc5)cc34)cccc21"
tested_target = "UniProt:P17948"
recorded_value = "≥ 5.00"

[[record]]
structure_notation = "COc1cc(Nc2ncnc(-n3ccc4ccc(Cl)cc43)n2)cc(OC)c1OC"
tested_target = "UniProt:P17948"
recorded_value = "4.96 to 5.07"

